Read-out: E-selectin (Homo sapiens) (UniProt P16581)
Sequence (P16581 whole entry, looked up): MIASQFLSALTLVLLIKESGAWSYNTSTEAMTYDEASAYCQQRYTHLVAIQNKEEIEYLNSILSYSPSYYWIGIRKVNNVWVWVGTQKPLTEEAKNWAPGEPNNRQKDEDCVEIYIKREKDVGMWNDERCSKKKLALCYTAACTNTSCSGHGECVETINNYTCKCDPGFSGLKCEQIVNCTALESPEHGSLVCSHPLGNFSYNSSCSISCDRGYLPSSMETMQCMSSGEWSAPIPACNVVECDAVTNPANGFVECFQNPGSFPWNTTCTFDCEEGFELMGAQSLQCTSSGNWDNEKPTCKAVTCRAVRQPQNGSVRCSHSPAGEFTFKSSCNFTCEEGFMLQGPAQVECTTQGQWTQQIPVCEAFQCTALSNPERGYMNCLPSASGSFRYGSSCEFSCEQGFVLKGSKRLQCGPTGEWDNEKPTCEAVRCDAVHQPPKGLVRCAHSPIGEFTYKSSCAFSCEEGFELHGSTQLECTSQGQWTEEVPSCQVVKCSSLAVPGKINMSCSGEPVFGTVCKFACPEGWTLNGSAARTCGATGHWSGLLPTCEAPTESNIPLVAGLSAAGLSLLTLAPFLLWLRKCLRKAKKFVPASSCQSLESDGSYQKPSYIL
procedure_details: BSK_SAg_Eselectin: BioMAP Diversity Plus: SAg Assay for Eselectin Biomarker Activity (AID 2283091)
reported_conditions: primary human HUVEC with PBMC; actives raise or lower the signal
The source made the active and inactive calls. Rule for the calls: active = hit-call score of the fitted dose curve at least 0.9, where 1 is the maximum; inactive = score below 0.9.
Possible outcomes: y for active, n for inactive

| mol | class_name |
| --- | --- |
| Nc1ccc2ccccc2c1 | y |
| NC(=O)C(F)(F)C(F)(F)F | n |
| Cc1ccc2c(c1N)C(=O)c1ccccc1C2=O | n |

----------
Read-out: Nuclear factor erythroid 2-related factor 2 (Homo sapiens)
procedure_details: LTEA_HepaRG_NFE2L2: Life Technologies and Expression Analysis (LTEA) Assay for Nuclear factor erythroid 2-related factor 2 (NFE2L2) Transcription Factor using HepaRG (AID 2283527)
reported_conditions: mRNA level, 48 h; actives raise or lower the signal
The source made the active and inactive calls. Rule for the calls: active = hit-call score of the fitted dose curve at least 0.9, where 1 is the maximum; inactive = score below 0.9.
Possible outcomes: 1.0 (active), 0.0 (inactive)

| molecule | class_name |
| --- | --- |
| CN(C)C(=O)Cl | 0.0 |
| CCCCCCCc1ccc(O)cc1 | 0.0 |
| CCOP(=S)(Oc1ccc([N+](=O)[O-])cc1)c1ccccc1 (configuration not stated) | 1.0 |
| CC(Cc1ccc(OCC(=O)O)cc1)NCC(O)c1csc(C(F)(F)F)n1 (configuration not stated) | 0.0 |
| CCCCN(CCCC)N=O | 0.0 |
| ClC(Cl)c1ccccc1 | 0.0 |
| O=[N+]([O-])c1ccccc1 | 0.0 |
